Source: the supplement of paper PMC7125110

B1: glmS ribozyme (parent)
chain: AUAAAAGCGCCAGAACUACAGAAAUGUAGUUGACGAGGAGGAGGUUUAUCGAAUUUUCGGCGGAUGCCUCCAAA

Variants of: B1
Assay: self-cleavage kobs at 2500 uM GlcN6P; higher = faster cleavage; RNA array
Details: with glucosamine-6-phosphate
This sample holds only a part of the variants without activity.
outcome_measure: self-cleavage kobs at 2500 uM GlcN6P

[[record]]
alteration = "G35C U49A G51U A53U"
measured_result = "< 1e-05 s⁻¹"

[[record]]
alteration = "C11G A15C"
measured_result = "< 1e-05 s⁻¹"

[[record]]
alteration = "A6C C11G U49G U65C C68G"
measured_result = "< 1e-05 s⁻¹"

[[record]]
alteration = "G43U U56C"
measured_result = "< 1e-05 s⁻¹"

[[record]]
alteration = "G35C C50U A53C"
measured_result = "< 1e-05 s⁻¹"

[[record]]
alteration = "G32A G35A C61A G63A C70U"
measured_result = "< 1e-05 s⁻¹"

[[record]]
alteration = "C10G G35A A42C"
measured_result = "< 1e-05 s⁻¹"

[[record]]
alteration = "A6U A14G U49C"
measured_result = "< 1e-05 s⁻¹"

[[record]]
alteration = "G13U G35U"
measured_result = "< 1e-05 s⁻¹"

[[record]]
alteration = "C58G U65C"
measured_result = "< 1e-05 s⁻¹"

[[record]]
alteration = "C10G G37C C67U"
measured_result = "< 1e-05 s⁻¹"

